So I've got a bunch of binders here, and I need their Bmax values.
# study system: cynomolgus BCMA on cells (cynomolgus monkey, UniProt Q02223 1-184 (human entry))
# Sequence (Q02223 other isoform, or with tags, fused parts or gaps): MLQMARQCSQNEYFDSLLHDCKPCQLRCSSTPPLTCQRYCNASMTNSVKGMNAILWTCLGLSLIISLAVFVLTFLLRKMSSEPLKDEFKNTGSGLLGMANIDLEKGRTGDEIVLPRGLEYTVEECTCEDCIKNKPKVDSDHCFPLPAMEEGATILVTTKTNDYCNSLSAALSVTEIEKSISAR
# method description: FACS, 293T-cynoBCMA cells
Just the number please, in MFI, no unit attached.

Prompt: Answer with the recorded Bmax of 9A8 (antibody, V domains shown, Chicken HybriFree-derived antibody; also called Antibody 30) VH: AVTLDESGGGLQTPGGTLSLVCKASGFTFSSFNMFWVRQAPGKGLEWVAYIRNDGNSASYGPAVKGRATISRDNGQSTVRLQLNNLRAEDTATYYCAKTTCIGSGGCIDTWGHGTEVIVSS VL: ALTQPSSVSANPGETVKITCSGGSSDYGWFQQKSPGSAPVTVIYSNNQRPSGIPSRFSGSKSGSTGTLTITGVQAEDEAIYYCANVDYTDDVFGAGTTLTVL only.
Completion: 17800

Prompt: Answer with the recorded Bmax of 10E10 (antibody, V domains shown, Chicken HybriFree-derived antibody; also called Antibody 46) VH: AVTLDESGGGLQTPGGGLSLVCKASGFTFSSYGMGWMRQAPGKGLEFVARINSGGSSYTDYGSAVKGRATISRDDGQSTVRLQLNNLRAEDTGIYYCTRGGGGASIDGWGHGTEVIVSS VL: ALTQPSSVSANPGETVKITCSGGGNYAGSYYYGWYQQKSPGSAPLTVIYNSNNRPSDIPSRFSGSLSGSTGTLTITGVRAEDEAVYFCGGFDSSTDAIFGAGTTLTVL only.
Completion: 4540

Prompt: Answer with the recorded Bmax of 9H1 (antibody, V domains shown, Chicken HybriFree-derived antibody; also called Antibody 44) VH: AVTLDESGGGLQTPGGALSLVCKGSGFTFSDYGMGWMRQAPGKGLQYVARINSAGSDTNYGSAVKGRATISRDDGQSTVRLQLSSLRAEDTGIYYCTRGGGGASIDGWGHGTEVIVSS VL: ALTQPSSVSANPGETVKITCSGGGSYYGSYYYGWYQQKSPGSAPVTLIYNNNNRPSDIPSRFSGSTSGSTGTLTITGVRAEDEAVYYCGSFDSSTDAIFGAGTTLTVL only.
Completion: 11400

Prompt: Answer with the recorded Bmax of 10H1 (antibody, V domains shown, Chicken HybriFree-derived antibody; also called Antibody 45) VH: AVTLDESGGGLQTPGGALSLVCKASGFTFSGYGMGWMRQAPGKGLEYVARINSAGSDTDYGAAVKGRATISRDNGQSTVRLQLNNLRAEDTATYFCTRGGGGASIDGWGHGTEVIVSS VL: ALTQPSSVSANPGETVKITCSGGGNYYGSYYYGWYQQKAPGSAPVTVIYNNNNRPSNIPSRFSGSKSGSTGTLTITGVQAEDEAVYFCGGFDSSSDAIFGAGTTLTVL only.
Completion: 21200

Prompt: Answer with the recorded Bmax of 9E12 (antibody, V domains shown, Chicken HybriFree-derived antibody; also called Antibody 43) VH: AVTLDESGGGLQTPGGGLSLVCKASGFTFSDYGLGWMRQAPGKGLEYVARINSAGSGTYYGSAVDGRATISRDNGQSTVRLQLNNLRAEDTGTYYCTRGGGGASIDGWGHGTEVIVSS VL: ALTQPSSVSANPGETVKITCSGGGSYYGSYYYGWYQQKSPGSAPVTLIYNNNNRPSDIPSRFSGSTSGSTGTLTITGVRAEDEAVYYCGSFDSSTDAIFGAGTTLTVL only.
Completion: 13200

Prompt: Answer with the recorded Bmax of 11D6 (antibody, V domains shown, Chicken HybriFree-derived antibody; also called Antibody 32) VH: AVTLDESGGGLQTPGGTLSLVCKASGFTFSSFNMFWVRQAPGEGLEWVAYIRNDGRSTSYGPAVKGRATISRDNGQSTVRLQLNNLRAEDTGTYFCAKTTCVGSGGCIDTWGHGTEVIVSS VL: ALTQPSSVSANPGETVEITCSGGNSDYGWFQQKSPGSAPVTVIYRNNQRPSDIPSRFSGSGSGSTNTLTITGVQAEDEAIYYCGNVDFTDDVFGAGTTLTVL only.
Completion: 27700

Prompt: Answer with the recorded Bmax of 9A5 (antibody, V domains shown, Chicken HybriFree-derived antibody; also called Antibody 42) VH: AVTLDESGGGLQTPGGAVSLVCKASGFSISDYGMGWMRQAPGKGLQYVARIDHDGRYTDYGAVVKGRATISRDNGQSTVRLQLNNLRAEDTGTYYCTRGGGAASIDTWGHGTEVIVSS VL: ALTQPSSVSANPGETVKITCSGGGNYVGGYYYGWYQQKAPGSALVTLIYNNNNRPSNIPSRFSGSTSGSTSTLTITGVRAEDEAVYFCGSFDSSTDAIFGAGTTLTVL only.
Completion: 18200

The values you see were collected from patent US20220362394A1.
